Collected % Blocking values appear next to each entry.
- tested system: T1, human CCR8 (human, UniProt P51685 1-355)
- T1 construct: Native CCR8 on human PBMC (CCR8+ CD3+ or CCR8+ CD4+ lymphocytes); also called chemokine (C-C motif) receptor 8
- T1 sequence (P51685 whole entry): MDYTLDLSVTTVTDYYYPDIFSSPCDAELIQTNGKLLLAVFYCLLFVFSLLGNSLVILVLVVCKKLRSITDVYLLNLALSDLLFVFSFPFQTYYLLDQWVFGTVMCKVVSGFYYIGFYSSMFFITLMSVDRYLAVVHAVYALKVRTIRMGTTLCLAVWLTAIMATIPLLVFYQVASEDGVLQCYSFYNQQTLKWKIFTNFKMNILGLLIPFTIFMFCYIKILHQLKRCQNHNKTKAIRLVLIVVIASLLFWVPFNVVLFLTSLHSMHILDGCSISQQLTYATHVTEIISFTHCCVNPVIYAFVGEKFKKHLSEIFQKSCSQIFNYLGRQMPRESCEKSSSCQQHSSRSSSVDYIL
- protocol description: flow blocking, PBMC CCR8+CD3+; competitor PE-433H
- Protocol: For blocking studies, 100 μL of the cell suspension were incubated with 10 μg purified isotype control, AB1, AB2, AB3, AB4, AB5, AB8, AB9, AB10, AB11, AB12, AB13, AB14, AB15, and Commercial ABI antibodies, or isotype control, as blocking agents. […]
Numeric answer only, unit % assumed.

Below are worked cases with known answers.
What value of measured % Blocking is listed for AB6 (antibody, V domains shown, Hybridoma monoclonal; Same VH/VL entries as AB5; also called antibody 6; clone 6) VH: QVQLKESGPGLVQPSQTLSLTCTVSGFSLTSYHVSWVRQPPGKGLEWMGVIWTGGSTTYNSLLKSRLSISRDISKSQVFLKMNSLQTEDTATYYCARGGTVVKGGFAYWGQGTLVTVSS VL: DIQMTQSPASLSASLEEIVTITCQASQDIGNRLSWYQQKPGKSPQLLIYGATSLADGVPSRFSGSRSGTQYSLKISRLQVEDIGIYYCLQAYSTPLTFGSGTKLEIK ?
10.7

What value of measured % Blocking is listed for AB11 (antibody, V domains shown, Hybridoma monoclonal; also called antibody 11; clone 11) VH: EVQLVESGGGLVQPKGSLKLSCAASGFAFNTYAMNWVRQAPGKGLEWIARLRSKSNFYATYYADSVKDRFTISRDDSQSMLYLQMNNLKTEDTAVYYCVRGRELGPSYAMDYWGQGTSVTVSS VL: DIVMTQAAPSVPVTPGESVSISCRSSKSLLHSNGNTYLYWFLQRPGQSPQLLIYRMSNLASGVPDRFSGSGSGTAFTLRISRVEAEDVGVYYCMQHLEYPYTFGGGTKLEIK ?
43.3

What value of measured % Blocking is listed for AB8 (antibody, V domains shown, Hybridoma monoclonal; also called antibody 8; clone 8) VH: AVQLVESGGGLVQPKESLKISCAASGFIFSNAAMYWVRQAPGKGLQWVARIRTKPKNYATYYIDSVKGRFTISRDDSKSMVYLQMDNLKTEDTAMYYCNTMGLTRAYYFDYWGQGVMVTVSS VL: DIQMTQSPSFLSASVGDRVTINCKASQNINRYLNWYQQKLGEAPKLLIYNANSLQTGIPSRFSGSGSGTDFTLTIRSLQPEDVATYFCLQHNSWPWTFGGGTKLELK ?
53

API: the following record is the query input.
What value of measured % Blocking is listed for AB7 (antibody, V domains shown, Hybridoma monoclonal; also called antibody 7; clone 7) VH: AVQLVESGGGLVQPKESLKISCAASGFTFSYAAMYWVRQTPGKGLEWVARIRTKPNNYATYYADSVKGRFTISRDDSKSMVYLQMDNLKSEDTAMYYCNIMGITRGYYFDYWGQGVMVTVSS VL: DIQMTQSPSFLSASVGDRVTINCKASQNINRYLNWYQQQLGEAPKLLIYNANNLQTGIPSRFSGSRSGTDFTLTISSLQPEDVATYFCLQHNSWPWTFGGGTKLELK ?
45.2
